Values from the supplement of paper PMC6757056

We begin with a simple list: items and their reported normalized RNA/DNA level with ligand (log10).
B1: library; a variant is named by its letters at N, in order (parent)
chain: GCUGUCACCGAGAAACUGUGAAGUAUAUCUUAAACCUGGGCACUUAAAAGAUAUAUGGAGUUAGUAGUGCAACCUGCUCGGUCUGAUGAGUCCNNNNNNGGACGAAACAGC

variants of: B1; assay: normalized RNA/DNA level with ligand (relative to sTRSVctl = 100) (log10 (% of sTRSVctl)); HEK293T; ligand: cyclic di-GMP (c-di-GMP-II aptamer); ligand concentration (+) RNA-Seq: 1 mM; higher = less ribozyme self-cleavage, higher mRNA level; conditions: reporter: mCherry (pCS4076), ligand present: yes
measured.attribute: normalized RNA/DNA level with ligand (log10)

mutant_label=UAGAUG observed_result=1.75
mutant_label=CUUGCG observed_result=1.86
mutant_label=UGAAGG observed_result=1.84
mutant_label=UAUCCU observed_result=1.87
mutant_label=GUAAGU observed_result=1.77
mutant_label=CAGAUC observed_result=1.71
mutant_label=GUUUGU observed_result=1.84
mutant_label=GUUGAC observed_result=1.79
mutant_label=UAAAUC observed_result=1.79
mutant_label=UUGCAG observed_result=1.9
mutant_label=CUGUCG observed_result=1.84
mutant_label=GGUUUC observed_result=1.86
mutant_label=GUAGAC observed_result=1.79
mutant_label=CUUGCA observed_result=1.77
mutant_label=UACUCA observed_result=1.89
mutant_label=GAUACU observed_result=1.82
mutant_label=AUAGUU observed_result=1.73
mutant_label=GAUCUC observed_result=1.89
mutant_label=ACAGCC observed_result=1.84
mutant_label=UAAGGC observed_result=1.81
mutant_label=CUGUGA observed_result=1.77
mutant_label=GCGCUA observed_result=1.78
